# Measured target: AAD1 (v1) (Sphingobium herbicidovorans, UniProt Q8KSC8)
# Construct: made in house; host or cells: E. coli BL-21 Star (DE3), plasmid pDAB3203
# Sequence (Q8KSC8 whole entry): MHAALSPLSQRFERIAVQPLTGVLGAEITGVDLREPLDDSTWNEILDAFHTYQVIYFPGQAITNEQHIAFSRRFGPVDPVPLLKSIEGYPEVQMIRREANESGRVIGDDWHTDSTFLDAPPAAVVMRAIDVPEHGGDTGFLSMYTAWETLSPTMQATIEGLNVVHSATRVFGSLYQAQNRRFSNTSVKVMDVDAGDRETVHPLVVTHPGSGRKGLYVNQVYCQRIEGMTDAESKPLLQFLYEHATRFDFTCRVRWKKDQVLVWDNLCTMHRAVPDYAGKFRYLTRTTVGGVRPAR
# Experiment: Colorimetric phenol detection assay of AAD1 (v1) activity (purified enzyme or E. coli extract)
# Assay type: biochemical
# Test parameters: purified AAD1 (v1); Michaelis-Menten fit
Value kind: Vmax ± SE (μmol min^−1 mg^−1 AAD1)

• C[C@@H](Oc1ccc(Cl)cc1Cl)C(=O)O = 0.79
• C[C@@H](Oc1ccc(Oc2ncc(C(F)(F)F)cc2Cl)cc1)C(=O)O = 0.34
• C[C@@H](Oc1ccc(Oc2cnc3cc(Cl)ccc3n2)cc1)C(=O)O [(R)- quizalofop] = 0.57
• O=C(O)COc1ccc(Cl)cc1Cl = 0.57

* * *

# Measured target: AAD1 (v1) (Sphingobium herbicidovorans, UniProt Q8KSC8)
# Construct: made in house; host or cells: E. coli BL-21 Star (DE3), plasmid pDAB3203
# Experiment: Colorimetric phenol detection assay of AAD1 (v1) activity (purified enzyme or E. coli extract)
# Type: biochemical
# Test parameters: Table 4; substrate 1 mM; 1 μg purified AAD1 (v1) per 0.16 ml assay
Here, each record is paired with measured A510, AAD1 data.
Value kind: A510, AAD1

* CC(Oc1ccc(Oc2ncc(C(F)(F)F)cc2Cl)cc1F)C(=O)O (stereo not drawn) | 0.144
* C[C@@H](Oc1ccc(Oc2cnc3cc(Cl)ccc3n2)cc1)C(=O)O [(R)- quizalofop] | 0.43
* CC(Oc1ccc(Oc2ccc(C#N)cc2F)cc1)C(=O)O (racemic) [(R,S)- cyhalofop] | 0.215
* CC(Oc1ccc(Oc2ncc(Cl)cc2Cl)cc1)C(=O)O (racemic) [(R,S)- chlorazifop] | 0.128
* CC(Oc1ccc(Oc2nc3ccc(Cl)cc3s2)cc1)C(=O)O (racemic) [(R,S)- fenthiaprop] | 0.199
* CC(Oc1ccc(Oc2ccc(Cl)cc2Cl)cc1)C(=O)O (racemic) [(R,S)- diclofop] | 0.155
* O=C(O)COc1ccc(Oc2ncc(C(F)(F)F)cc2Cl)cc1 [haloxyfop- oxyacetate] | 0.004
* CC(Oc1ccc(Oc2ncc(C(F)(F)F)cc2Cl)cc1)C(=O)O (stereo not drawn) | 0.172
* C[C@@H](Oc1ccc(Oc2ccc(C#N)cc2F)cc1)C(=O)O [cyhalofop] | 0.114
* C[C@@H](Oc1ccc(Oc2ccc(C#N)cc2F)cc1)C(=O)O [(R)- cyhalofop] | 0.222
* CC(Oc1ccc(Oc2ccc(C(F)(F)F)cn2)cc1)C(=O)O (racemic) [(R,S)- fluazifop] | 0.427
* C[C@H](Oc1ccc(Oc2ccc(C#N)cc2F)cc1)C(=O)O [(S)- cyhalofop] | 0.003
* CC(Oc1ccc(Oc2ncc(Cl)cc2F)cc1)C(=O)O (racemic) [(R,S)- clodinofop] | 0.295
* O=C(O)COc1ccc(Cl)c2cccnc12 | 0
* C[C@@H](Oc1ccc(Oc2nc3ccc(Cl)cc3o2)cc1)C(=O)O [(R)- fenoxaprop] | 0.408

* * *

# Measured target: AAD1 (v1) (Sphingobium herbicidovorans)
# Construct: made in house; host or cells: E. coli BL-21 Star (DE3), plasmid pDAB3203
# Experiment: Colorimetric phenol detection assay of AAD1 (v1) activity (purified enzyme or E. coli extract)
# Type: biochemical
# Test parameters: purified AAD1 (v1)
Value kind: kcat (s⁻¹)

- C[C@@H](Oc1ccc(Cl)cc1Cl)C(=O)O [R-dichlorprop]: 0.435
- C[C@@H](Oc1ccc(Oc2cnc3cc(Cl)ccc3n2)cc1)C(=O)O [(R)- quizalofop]: 0.315
- C[C@@H](Oc1ccc(Oc2ncc(C(F)(F)F)cc2Cl)cc1)C(=O)O [R-haloxyfop]: 0.187
- O=C(O)COc1ccc(Cl)cc1Cl [2,4-D, 2,4-dichlorophenoxyacetic acid]: 0.045

* * *

# Measured target: AAD1 (v1) (Sphingobium herbicidovorans, UniProt Q8KSC8)
# Construct: made in house; host or cells: E. coli BL-21 Star (DE3), plasmid pDAB3203
# Experiment: Colorimetric phenol detection assay of AAD1 (v1) activity (purified enzyme or E. coli extract)
# Assay type: biochemical
# Test parameters: 0.5 mM substrate; 4 μl extract; 15 min
Value kind: activity of AAD1 (v1) E. coli extract on substrate

- Cc1cc(Cl)ccc1OC(C)C(=O)O (racemic) [(R,S)-mecoprop]: cleaved
- CC(Oc1ccc(Cl)cc1Cl)C(=O)O (racemic) [(R,S)-dichlorprop, 2,4-dichlorophenoxypropionic acid]: cleaved
- O=C(O)COc1ccc(Cl)cc1Cl: cleaved
